TARGET_OF_ASSAY: recombinant rat α1β3γ2 receptors (Rattus norvegicus, UniProt P18508+P62813)
Sequence (P62813 28-455): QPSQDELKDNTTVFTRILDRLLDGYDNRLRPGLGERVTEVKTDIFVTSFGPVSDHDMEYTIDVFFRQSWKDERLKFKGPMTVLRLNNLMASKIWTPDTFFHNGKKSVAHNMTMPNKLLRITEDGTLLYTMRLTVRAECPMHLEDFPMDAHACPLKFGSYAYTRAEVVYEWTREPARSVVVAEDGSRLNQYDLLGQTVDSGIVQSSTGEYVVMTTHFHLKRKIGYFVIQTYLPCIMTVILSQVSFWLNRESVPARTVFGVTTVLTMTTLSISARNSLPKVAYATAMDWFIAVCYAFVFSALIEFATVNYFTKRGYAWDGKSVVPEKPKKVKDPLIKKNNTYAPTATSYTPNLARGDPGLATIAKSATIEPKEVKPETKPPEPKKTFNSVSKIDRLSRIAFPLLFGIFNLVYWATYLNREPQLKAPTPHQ
Sequence (P63079 26-473 partner): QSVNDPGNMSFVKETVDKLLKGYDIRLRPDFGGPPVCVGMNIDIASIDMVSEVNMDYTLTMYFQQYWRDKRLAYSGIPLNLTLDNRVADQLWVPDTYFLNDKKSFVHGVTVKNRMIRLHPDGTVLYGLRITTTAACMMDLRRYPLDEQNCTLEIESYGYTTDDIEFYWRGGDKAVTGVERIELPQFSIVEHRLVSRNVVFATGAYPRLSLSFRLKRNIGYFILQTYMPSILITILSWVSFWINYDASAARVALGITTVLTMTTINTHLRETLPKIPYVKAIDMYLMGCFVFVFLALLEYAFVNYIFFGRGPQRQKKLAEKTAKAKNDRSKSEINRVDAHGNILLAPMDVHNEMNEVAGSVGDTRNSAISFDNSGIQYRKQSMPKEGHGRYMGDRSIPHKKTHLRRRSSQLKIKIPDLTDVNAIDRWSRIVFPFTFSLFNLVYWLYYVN
Sequence (P18508 39-466): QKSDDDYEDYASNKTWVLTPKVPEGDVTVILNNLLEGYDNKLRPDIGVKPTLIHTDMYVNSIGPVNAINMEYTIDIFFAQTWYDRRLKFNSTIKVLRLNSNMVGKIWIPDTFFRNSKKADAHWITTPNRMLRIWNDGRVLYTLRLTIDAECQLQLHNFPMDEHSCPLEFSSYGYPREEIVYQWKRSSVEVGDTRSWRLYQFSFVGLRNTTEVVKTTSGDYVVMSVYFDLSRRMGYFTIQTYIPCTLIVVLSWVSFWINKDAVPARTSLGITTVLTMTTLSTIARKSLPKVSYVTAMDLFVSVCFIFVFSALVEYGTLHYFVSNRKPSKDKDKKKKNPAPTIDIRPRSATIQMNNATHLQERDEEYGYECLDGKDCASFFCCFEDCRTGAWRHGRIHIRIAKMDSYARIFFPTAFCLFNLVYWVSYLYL
MEASUREMENT_DESCRIPTION: Two-electrode voltage clamp of GABA-induced chloride currents in Xenopus oocytes
Type: cell-based
CONDITION_SUMMARY: 10 μM; α1β3γ2; ns = not significant
Mark 1 (yes) only when efficacy (% GABA EC3) stays strictly below 200 % GABA EC3. Values equal to the cut-off are 0 (no).

{"MOLECULE": "CN1C(=O)CN=C(c2ccccc2)c2cc(Cl)ccc21", "TARGET_OF_ASSAY": "recombinant rat α1β3γ2 receptors (Rattus norvegicus, UniProt P18508+P62813)", "ASSIGNED_CLASS": "0 (no)"}
{"MOLECULE": "Cc1nnc2ccc(-c3cccc(C(F)(F)F)c3)nn12", "TARGET_OF_ASSAY": "recombinant rat α1β3γ2 receptors (Rattus norvegicus, UniProt P18508+P62813)", "ASSIGNED_CLASS": "0 (no)"}
{"MOLECULE": "CCc1c(C(=O)OC)ncc2[nH]c3cc(OC)c(OC)cc3c12", "TARGET_OF_ASSAY": "recombinant rat α1β3γ2 receptors (Rattus norvegicus, UniProt P18508+P62813)", "ASSIGNED_CLASS": "0 (no)"}
{"MOLECULE": "CCOC(=O)c1ncn2c1C1CCCN1C(=O)c1cc(OC)ccc1-2 (stereo not shown)", "TARGET_OF_ASSAY": "recombinant rat α1β3γ2 receptors (Rattus norvegicus, UniProt P18508+P62813)", "ASSIGNED_CLASS": "1 (yes)"}
{"MOLECULE": "CC(C)(C)OC(=O)c1ncn2c1[C@@H]1CCCN1C(=O)c1c(Br)cccc1-2", "TARGET_OF_ASSAY": "recombinant rat α1β3γ2 receptors (Rattus norvegicus, UniProt P18508+P62813)", "ASSIGNED_CLASS": "1 (yes)"}
{"MOLECULE": "CN1CCN(C(=O)OC2c3nccnc3C(=O)N2c2ccc(Cl)cn2)CC1 (stereo not shown)", "TARGET_OF_ASSAY": "recombinant rat α1β3γ2 receptors (Rattus norvegicus, UniProt P18508+P62813)", "ASSIGNED_CLASS": "0 (no)"}

Numbers sourced from paper PMC7615656.
